# testedSystem: T1, HLA-A2 on T2 cells alone (not pulsed with peptide) (human)
# T1 construct: TAP-deficient HLA-A2+ T2 cells with no peptide added; Also used as the HLA-A2 that pulsed peptides stabilise; also called T2 alone; T2 cells left unpulsed
# procedureSummary: flow cytometry, phage clones on T2 cells
readoutType: binding result

1) ESK2 clone 26 (Clone 26 anti-WTMC antibody moiety), phage clone (scFv, V domains shown, Human scFv on phage (E-ALPHA library); also called ESK2-26) VH: QVQLVQSGGGLVQPGRSLRLSCAASGFTFDDYAMHWVRQAPGKGLEWVSGISWNSGSIGYADSVKGRFTISRDNAKNSLYLQMNSLRPEDTAVYYCARGYMGHNWYDWGQGTLVTVSS VL: LPVLTQPPSVSVAPGKTARITCGGNDIGSKAVHWYQQKPGQAPVLVIYYNRDRPSGIPERFSGSNSGNTATLTISRVEAGDEADYYCQVWDSFSDHYVFGTGTKVTVLG : no binding
2) ESK2 clone 17 (Clone 17 anti-WTMC antibody moiety), phage clone (scFv, V domains shown, Human scFv on phage (E-ALPHA library); also called ESK2-17) VH: EVQLVQSGAEVKKPGESLKISCKGSGYSFTSYWIGWVRQMPGKGLEWMGIIYPGDSDTRYSPSFQGQVTISADKSISTAYLQWSSLKASDTAVYYCARGGYIYYDAWGQGTLVTVSS VL: SYVLTQPPSVSEAPRQRVTISCSGSRSNVGNNAVSWYQHLPGKAPKLLIYYDDLMPSGVSDRFSGSKSGTSASLAISGLQSEDEADYYCAAWDDSLNGLVFGGGTKLTVLG : no binding
